B1: NET1 (parent)
chain: PTPAKRRSSALWSEMLDITMKESL

# Variants of: B1
# assay-summary: protein stability index of a GFP-peptide fusion (GPS, HEK-293T) (PSI 1-6); higher = more stable;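 note: lentivirally expressed fusions sorted by FACS into six bins by GFP to DsRed ratio, PSI derived from sequencing read proportions per bin multiplied by bin number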
# particulars: c terminus: a fixed tail appended
property-name: protein stability index
One number for each entry.

Example results:
PTPAKRRSSALWSEMLDITHKESL [M20H]	2.45
PTPAKRRSSNLWSEMLDITMKESL [A10N]	2.67
PTPAKRRSSALWSEHLDITMKESL [M15H]	2.38

Below is a list of variants. For each, state its recorded protein stability index.
1. PTPAKRVSSALWSEMLDITMKESL [R7V]
2. PTPAKRRSSALWSEMLDITMKEML [S23M]
3. PTPAKRRSSALWSEMLDITWKESL [M20W]
4. PTPAKRHSSALWSEMLDITMKESL [R7H]
5. PTPAKRRSSALWSEMLLITMKESL [D17L]
6. PTQAKRRSSALWSEMLDITMKESL [P3Q]

A:
1: 2.46; 2: 1.33; 3: 1.72; 4: 2.34; 5: 2.07; 6: 2.39

Below is a list of variants. For each, state its recorded protein stability index.
1. HTPAKRRSSALWSEMLDITMKESL [P1H]
2. KTPAKRRSSALWSEMLDITMKESL [P1K]

A:
3.04
2.04

Source listed as the supplement of paper PMC10567573.
